- SYSTEM_UNDER_TEST: CaHse1
- ASSAY_NOTES: SPOT peptide array binding signal intensity (averaged, normalized) (arbitrary units (background-subtracted, floor 0; scale differs between SH3 domains)); higher = stronger binding of the SH3 domain to the peptide
Lab note: anything with SPOT peptide array binding signal intensity at or over 60 counts as y; the rest go in n.

BINDER	DISCRETE_LABEL
GRSRLFPHSPLGRSS	n
TPTSGPPLLPPRNTM	y
KFIPSRPAPKPPSSA	n
VQKRKLPLPGSIASA	n
QTMRQAPKRPDADVA	y
DDEDVPPQLPTRTKS	n
ISNFVPPNLPMRRFK	y
HVRRSILALPLGVLL	n
ILARAILTIPRVLDK	y
RRSKSLPTTPGIRSG	n
LRWRHKFFLPAIAAI	n
KWVRRPKLMTPLTFS	y
RKQRSIPLSPIVPES	n
TKPTPPPKPSHLKPK	n
